# test-target: Metabotropic glutamate receptor 8 (Rattus norvegicus)
# assay-summary: mGluR8 Gi/Go-coupled signaling modulation – cell-based, rat, thallium flux, HTS, primary screen (AID 488969)
# test-parameters: HEK293 rat mGluR8, GIRK (G protein-gated inwardly rectifying potassium channel) thallium flux, FluoZin2; at 10 µM; stronger effect = higher value; submaximal glutamate (EC20) added with thallium
Over roughly 110,000 compounds, “z-score” has its median near -0.1; the highest 2% begin near 2. Only a selection was taken, and the highest values are over-represented in it overall.
quantity: z-score
# print the numeric value only

Recall and state the measured z-score for CCCCN(CCCC)C(=S)N/N=C/c1c(C)[nH]n(-c2ccccc2)c1=O .
10.4

Recall and state the measured z-score for Cc1ccc(-n2[nH]c(C)c(/C=N/c3ccccn3)c2=O)cc1 .
6.24

Recall and state the measured z-score for Cc1[nH]n(-c2ccccc2)c(=O)c1/C=N/O .
-0.187
